I'd be grateful if you could share measured composite z-score for these entries.
target: Streptavidin (Streptomyces avidinii); assay: compounds binding control protein streptavidin – biophysical, small-molecule microarray, 635/667 nm fluorescence, artefact control for SMM compound annotation, primary screen (AID 1147); details: higher = more signal;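 further: signal reflects streptavidin binding to arrayed compounds as a control protein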
Just the number, please.

composite z-score recorded for this compound, [N-]=[N+]=Nc1ccccc1C[C@@]1(C(=O)N2CCCCC2)N=C(c2ccc(OCCCO)cc2)O[C@@H]1c1ccccc1N=[N+]=[N-] , is 1.33

Recorded result, O=C(NC1CC1)[C@@H]1c2ccccc2C(=O)N(C2Cc3ccccc3C2)[C@H]1c1ccc(CO)cc1 , composite z-score: -0.286

According to the records, this compound CC(C)[Si](C#CCCCC#N)(O[C@H](c1ccccc1)c1cn(Cc2cccc(Cl)c2)nn1)C(C)C displays composite z-score of -0.0708

Given item O=C1NC(=O)C2C1C=CC(C(O)c1ccc(I)cc1)N2Nc1ccc(Cl)cc1Cl (configuration not stated) , the value recorded as its composite z-score is 1.34

The compound listed as C=C(CCCC)/C(=C/C[C@@H](OC(C)=O)c1ccccc1OCCO)c1cc(C(=O)OC)ccc1OC has a reported composite z-score of -0.478

Please fill in: composite z-score reported for C=CCC(OC(C)=O)[C@@H]1[C@@H](N(Cc2ccc(-c3cccc(C(F)(F)F)c3)o2)C(=O)c2cccc3ccccc23)c2cc(OCCCO)ccc2N1C(=O)Cc1ccc2ccccc2c1 (some centres not stated) = -0.253

The compound identified as CC(CO)N1C(=O)[C@@H]2C3C(=O)OCCC/C=C\[C@H]3OC23C=CCN(CCN2CCOCC2)C(=O)[C@@H]13 (some centres not stated) registered its composite z-score at -0.254

The compound listed as CC(C)(C)OC(=O)CC[C@@]1(C(=O)N2CCCCC2)N=C(c2ccc(OCCCO)cc2)O[C@@H]1c1ccccc1 shows composite z-score equal to 1.82

So, O=C1OCC=C[C@H]2OC34C=CCN(Cn5nnc6ccccc65)C(=O)[C@H]3N(CCCCCO)C(=O)[C@@H]4[C@@H]12 (some centres not stated) ? Its composite z-score was -0.573

// recorded composite z-score for COCCCNC(=O)[C@@]1(Sc2ccc(C)cc2)CC(=O)N(Cc2ccccc2Cl)[C@@H]1c1ccc(CO)cc1 : 0.584

For record O=C1OCCC=C[C@H]2OC34C=CCN(c5ccc(Cl)cc5)C(=O)[C@H]3N(CCCO)C(=O)[C@@H]4C12 (some centres not stated) the listed composite z-score is -0.414

The compound C=CCOC(=O)[C@H]1[C@@H]2C(=O)O[C@@H](c3ccccc3)[C@@H](c3ccccc3)N2[C@@H](c2ccc(OCCOC(=O)[C@H]3C[C@H]4C(=O)N[C@@H](CCCCN(C)C)C(=O)N4[C@H]3c3cccc(OCCO)c3)cc2)[C@]12C(=O)Nc1ccc(I)cc12 showed composite z-score equal to 0.457
